These entries and their values trace back to paper PMC9820559.

- TARGET_UNDER_TEST: T1, RSV N-RNA complex (full-length N protein in ring-shaped complexes with bacterial RNA) (human respiratory syncytial virus, UniProt P03418 1-391)
- T1 construct: human RSV nucleoprotein N, full length; concentrations are of N protomer; also called N-RNA rings; source: in lysate for the co-purification; purified (glutathione-Sepharose, thrombin, Superdex 200) as N-RNA complex; copies: 10-11
- T1 sequence (looked up): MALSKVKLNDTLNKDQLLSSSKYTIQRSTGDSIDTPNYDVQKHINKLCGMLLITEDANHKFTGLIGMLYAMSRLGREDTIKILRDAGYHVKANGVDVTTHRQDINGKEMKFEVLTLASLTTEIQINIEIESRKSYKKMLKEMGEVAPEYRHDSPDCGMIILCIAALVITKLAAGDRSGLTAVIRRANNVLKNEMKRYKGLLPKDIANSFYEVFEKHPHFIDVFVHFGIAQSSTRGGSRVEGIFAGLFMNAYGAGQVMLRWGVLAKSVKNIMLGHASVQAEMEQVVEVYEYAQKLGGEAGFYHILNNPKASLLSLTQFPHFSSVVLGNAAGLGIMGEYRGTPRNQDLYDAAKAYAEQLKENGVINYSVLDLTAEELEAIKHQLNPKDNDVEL
- EXPERIMENT: fluorescence polarisation; competition: unlabeled P7E varied against 200 nM F7E on 10 µM N-RNA; Tris pH 8 without salt; Hill equation; Ki from the IC50-to-Ki server
- ASSAY_CONTEXT: both partners purified
pKi: −log10 of the molar value.
ASSAY_METRIC: pKi

# BINDER, ASSAY_METRIC, RESULT_VALUE
rows = [
    ("DLELEDF (unlabeled peptide from which F7E was made; C-terminal 7 residues of RSV phosphoprotein P; source: synthetic peptide (Fmoc/tBu solid phase, RP-HPLC purified)) [P7E (unlabeled RSV P 7-mer, Ser237Glu)]", "pKi", 4.13),
]
